From: the METLIN SMRT retention time set (Domingo-Almenara et al. 2019)

test: gradient 5% acetonitrile 3 min, to 50% in 2 min, to 85% in 15 min, held 3 min, 100 µL/min; conditions: column: Zorbax Extend-C18 2.1 x 50 mm; eluents: water / acetonitrile, 0.1% formic acid
Could you mark each record true if its RP-LC retention time falls strictly under 700 s, and false if it equals or exceeds it?

Use the examples below as a reference point.
| compound | cat |
| --- | --- |
| CN1CCCc2ccc(NC(=O)CC3CCCN(c4cn[nH]c(=O)c4)C3)cc21 (stereo unspecified) | true |
| CCN1CCN(C(=O)Nc2ccc(C(=O)OC)cc2)c2cccnc21 | true |
| COc1ccc(OC)c(-c2ccc(=O)n(CCNC(=O)C(C)Oc3ccccc3F)n2)c1 (stereo unspecified) | false |

Kindly consider the entry below.
query: Check if RP-LC retention time falls below 700 s for "CCOc1cc(CN2CCn3c(nn(CC4CC4)c3=O)C2)ccc1O" .
result: true

====

Recorded RP-LC retention time by entry
experiment: gradient 5% acetonitrile 3 min, to 50% in 2 min, to 85% in 15 min, held 3 min, 100 µL/min; conditions: column: Zorbax Extend-C18 2.1 x 50 mm; eluents: water / acetonitrile, 0.1% formic acid
The response must be a number in s with no trailing unit.

Examples from the recorded data:
| compound | attribute measured | reported result |
| --- | --- | --- |
| COc1ccc(S(=O)(=O)Cc2nc(-c3ccc(Br)cc3)no2)cc1 | RP-LC retention time | 1040 |
| Nc1n[nH]c(-c2ccccc2)n1 | RP-LC retention time | 619 |
| Cc1cnc(C(=O)N2CC(c3nc(CCOC4CCCC4)no3)C2)cn1 | RP-LC retention time | 777 |

query: Supply recorded RP-LC retention time for COc1cccc(CC(=O)N2CCCC2c2cc(C)on2)c1 (centres undefined) here.
result: 757

====

assay: gradient 5% acetonitrile 3 min, to 50% in 2 min, to 85% in 15 min, held 3 min, 100 µL/min; conditions: column: Zorbax Extend-C18 2.1 x 50 mm; eluents: water / acetonitrile, 0.1% formic acid
attribute measured: RP-LC retention time
The reply must contain the numeric value and, after it, the unit.

Examples from the recorded data:
| compound | RP-LC retention time |
| --- | --- |
| CCn1cc(S(=O)(=O)NCc2cc(F)cc(F)c2)c2cccnc21 | 828 s |
| CCOC(=O)C1=C(C)NC(=O)NC1c1cn(-c2ccccc2)nc1-c1ccc(OCC)cc1 (stereo not drawn) | 946 s |

query: Supply recorded RP-LC retention time for "O=C(Cn1cccc1-c1nnc(C2CCC2)o1)N1CCc2ccccc21" here.
result: 946 s

====

test: gradient 5% acetonitrile 3 min, to 50% in 2 min, to 85% in 15 min, held 3 min, 100 µL/min; conditions: column: Zorbax Extend-C18 2.1 x 50 mm; eluents: water / acetonitrile, 0.1% formic acid
Recorded RP-LC retention time by entry
The reply must contain the numeric value and, after it, the unit.

| molecule | reported result |
| --- | --- |
| COc1ccc(S(=O)(=O)N2CCCC(C(=O)NCCCOC(C)C)C2)cc1C (stereo unspecified) | 877 s |
| Cn1nccc1C(=O)N1CCC(c2cc(-c3ccc(F)cc3)n[nH]2)CC1 | 712 s |
| Cc1nn(-c2nc(CC(=O)N3CCOCC3)cs2)c(C)c1Cl | 842 s |
| CC(=O)N1CCc2cc(N3CC(C(=O)Nc4ccc(F)cc4C)CC3=O)ccc21 (stereo unspecified) | 690 s |
| CS(=O)(=O)N1CCCc2cc(C(=O)NCc3ccccn3)ccc21 | 607 s |

query: Supply recorded RP-LC retention time for "Cn1cc(CC(=O)NCc2ccccc2Cl)c2cccnc21" here.
result: 706 s
